# procedure details: compound effects on hepatocellular carcinoma cell viability – HepG2, calcein-AM fluorescence, 48 h, basal, profiling panel (AID 1164); further: test concentration not given here
# cond: higher = more signal
Give 1 when the value for z-score is at least -1. Give -1 when it is less.

// known answers, use as guide
>>> class_name("O=C(NCC(O)CO)[C@@]1(Cc2ccccc2)COC(c2ccc(OCCCO)cc2)=N1 (stereo not given in full)")
1
>>> class_name("C=C[C@@H](C)[C@@H](OC(=O)Nc1ccc(OC)cc1)c1ccc(O)c2ccccc12")
-1
>>> class_name("O=C1[C@H]2C=C(Br)[C@H](C[C@@H]2OCCOCCO)[C@@]12CO2")
1

Query :: Could you please find out whether CN(C)CCCCCCNC(=O)[C@@H]1C[C@@H]2C(=O)N[C@@H](Cc3ccccc3)C(=O)N2[C@@H]1c1cccc(OCCO)c1 has z-score that meets -1 or exceeds it?
Result :: 1

Query :: Record CO[C@H]1O[C@H](CO)[C@@H](OC(=O)Nc2ccccc2-c2ccccc2)[C@H](OC(=O)Nc2ccccc2-c2ccccc2)[C@H]1OC(=O)Nc1ccccc1-c1ccccc1 ; criterion: z-score no lower than -1. Met?
Result :: -1
